- MEASURED_TARGET: c-Met (cytoplasmic domain) (Homo sapiens)
- Construct: 10 ng/mL c-Met (cytoplasmic domain, Invitrogen Corporation #PV3143); purchased Invitrogen Corporation PV3143
- PROTOCOL_TEXT: c-Met Kinase Assay (same methods as for ALK, with modifications)
- Assay type: biochemical
- CONDITIONS: c-Met kinase inhibition, 1 μM ATP; read-out: cMet Activity
Measured IC50, listed per entry for reference.
QUANTITY_MEASURED: IC50

MOLECULE_SMILES	QUANTITY_MEASURED	RECORDED_MEASUREMENT
CCN([C@@H]1CCCC[C@H]1Nc1nc(Nc2ccc3c(c2)C(C)(C)CCC(=O)N3)ncc1Cl)S(C)(=O)=O	IC50	1 to 10 µM
CNC(=O)c1ccccc1N(C)c1nc(Nc2ccc3c(c2)CCOC(=O)N3C)ncc1F	IC50	1 to 10 µM
C#CCNC(=O)c1cccc(F)c1Nc1nc(Nc2ccc3c(c2)N(C(C)=O)CCCC3)ncc1Cl	IC50	< 0.1 µM
COc1cc2c(cc1Nc1ncc(Cl)c(Nc3ccc(N4CCOCC4)cc3OC)n1)CCN(CCN1CCOCC1)CC2	IC50	> 10 µM
COCCOC(=O)c1ccccc1Nc1nc(Nc2cc3c(cc2OC)CCN(CCO)CC3)ncc1Cl	IC50	> 10 µM
CNC(=O)c1cccc(Cl)c1Nc1nc(Nc2ccc3c(c2)CCOC(=O)N3C)ncc1Cl	IC50	< 0.1 µM
CNC(=O)c1scc(C)c1Nc1nc(Nc2ccc3c(c2)CCC(=O)NC3(C)C)ncc1Cl	IC50	< 0.1 µM
CCN1CCCOc2cc(Nc3ncc(Cl)c(N[C@@H]4CCCC[C@H]4NS(C)(=O)=O)n3)ccc21	IC50	0.1 to 1 µM

---

- MEASURED_TARGET: c-Met (cytoplasmic domain) (Homo sapiens, UniProt P08581)
- Construct: 10 ng/mL c-Met (cytoplasmic domain, Invitrogen Corporation #PV3143); purchased Invitrogen Corporation PV3143
- Sequence (P08581 956-1390 limits assumed): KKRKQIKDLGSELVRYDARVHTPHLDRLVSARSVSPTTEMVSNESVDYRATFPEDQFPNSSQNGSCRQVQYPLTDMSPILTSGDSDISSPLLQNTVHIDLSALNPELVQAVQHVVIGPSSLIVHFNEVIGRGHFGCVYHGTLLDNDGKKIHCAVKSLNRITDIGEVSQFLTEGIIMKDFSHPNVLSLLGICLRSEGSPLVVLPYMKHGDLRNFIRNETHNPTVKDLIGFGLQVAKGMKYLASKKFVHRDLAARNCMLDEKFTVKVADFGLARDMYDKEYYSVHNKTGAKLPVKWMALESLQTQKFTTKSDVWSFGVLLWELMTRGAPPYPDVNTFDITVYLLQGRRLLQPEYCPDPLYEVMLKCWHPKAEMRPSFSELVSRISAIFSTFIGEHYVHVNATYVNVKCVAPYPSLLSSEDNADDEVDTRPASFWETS
- PROTOCOL_TEXT: c-Met Kinase Assay (same methods as for ALK, with modifications)
- Format: biochemical
- CONDITIONS: 1 μM ATP (Km level); read-out: cMet Activity (c-Met Kinase Inhibition, IC50)

MOLECULE_SMILES	MEASURED_TARGET	IC50
CCN1CCN(CC)c2cc(Nc3ncc(Cl)c(Nc4ccccc4S(=O)(=O)C(C)C)n3)ccc2C1	c-Met (cytoplasmic domain) (Homo sapiens, UniProt P08581)	0.1 to 1 µM
COc1cc2c(cc1Nc1ncc(C(F)(F)F)c(N[C@H]3[C@@H](C(N)=O)[C@@H]4C=C[C@H]3C4)n1)CCN(CC(=O)N(C)C)CC2	c-Met (cytoplasmic domain) (Homo sapiens, UniProt P08581)	1 to 10 µM
CCNC(=O)c1cccc(F)c1Nc1nc(Nc2cc3c(cc2OC)CCN(CC(F)F)CC3)ncc1Cl	c-Met (cytoplasmic domain) (Homo sapiens, UniProt P08581)	1 to 10 µM
COc1cc2c(cc1Nc1ncc(Cl)c(N[C@H]3[C@@H](C(N)=O)[C@@H]4C=C[C@H]3C4)n1)CCN(C(C)C)CC2	c-Met (cytoplasmic domain) (Homo sapiens, UniProt P08581)	> 10 µM

---

- MEASURED_TARGET: baculovirus-expressed ALK (Homo sapiens, UniProt Q9UM73)
- Construct: host or cells: baculovirus expression system
- Sequence (Q9UM73 19-1620): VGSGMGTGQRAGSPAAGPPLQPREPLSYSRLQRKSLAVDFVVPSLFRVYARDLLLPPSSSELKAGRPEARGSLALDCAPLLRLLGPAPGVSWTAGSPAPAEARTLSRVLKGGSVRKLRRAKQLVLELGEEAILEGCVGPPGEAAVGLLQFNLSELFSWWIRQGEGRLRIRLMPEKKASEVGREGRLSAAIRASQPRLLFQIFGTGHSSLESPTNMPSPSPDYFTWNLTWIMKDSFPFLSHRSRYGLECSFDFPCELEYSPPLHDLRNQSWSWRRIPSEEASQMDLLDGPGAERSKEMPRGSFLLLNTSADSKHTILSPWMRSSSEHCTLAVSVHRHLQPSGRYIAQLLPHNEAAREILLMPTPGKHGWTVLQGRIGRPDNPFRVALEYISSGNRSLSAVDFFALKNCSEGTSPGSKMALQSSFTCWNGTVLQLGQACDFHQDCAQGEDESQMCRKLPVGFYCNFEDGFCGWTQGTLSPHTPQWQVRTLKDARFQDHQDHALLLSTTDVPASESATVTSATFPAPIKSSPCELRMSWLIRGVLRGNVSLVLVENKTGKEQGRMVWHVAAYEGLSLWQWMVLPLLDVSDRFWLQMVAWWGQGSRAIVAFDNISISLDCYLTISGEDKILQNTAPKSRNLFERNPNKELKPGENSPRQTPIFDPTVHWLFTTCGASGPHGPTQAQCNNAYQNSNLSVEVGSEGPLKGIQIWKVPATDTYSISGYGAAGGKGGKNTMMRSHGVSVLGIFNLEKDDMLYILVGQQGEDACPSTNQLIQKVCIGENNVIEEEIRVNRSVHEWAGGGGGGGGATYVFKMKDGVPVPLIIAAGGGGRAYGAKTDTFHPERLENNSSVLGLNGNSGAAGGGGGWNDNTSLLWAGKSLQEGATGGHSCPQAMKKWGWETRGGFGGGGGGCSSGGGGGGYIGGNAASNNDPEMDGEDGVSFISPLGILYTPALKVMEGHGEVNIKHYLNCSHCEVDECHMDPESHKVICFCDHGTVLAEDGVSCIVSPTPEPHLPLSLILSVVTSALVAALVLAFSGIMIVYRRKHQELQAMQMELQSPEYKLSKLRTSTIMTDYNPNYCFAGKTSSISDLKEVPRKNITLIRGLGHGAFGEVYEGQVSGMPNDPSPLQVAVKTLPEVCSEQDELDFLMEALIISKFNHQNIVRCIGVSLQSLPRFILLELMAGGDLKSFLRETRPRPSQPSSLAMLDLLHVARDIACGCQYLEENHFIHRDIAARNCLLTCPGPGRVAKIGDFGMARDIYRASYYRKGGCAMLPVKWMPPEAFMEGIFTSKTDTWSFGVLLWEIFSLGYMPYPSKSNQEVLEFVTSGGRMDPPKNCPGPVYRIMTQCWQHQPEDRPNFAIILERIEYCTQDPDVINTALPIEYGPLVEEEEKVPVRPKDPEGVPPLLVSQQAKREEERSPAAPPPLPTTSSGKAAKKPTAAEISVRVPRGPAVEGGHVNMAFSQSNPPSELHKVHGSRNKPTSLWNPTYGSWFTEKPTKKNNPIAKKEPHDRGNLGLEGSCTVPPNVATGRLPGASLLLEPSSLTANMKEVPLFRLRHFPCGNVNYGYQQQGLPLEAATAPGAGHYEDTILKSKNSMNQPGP
- PROTOCOL_TEXT: ALK Kinase Assay (ELISA-type, time-resolved fluorescence)
- Format: biochemical
- CONDITIONS: ALK kinase inhibition, 1 μM ATP; read-out: ALK Activity
Measured IC50, listed per entry for reference.
QUANTITY_MEASURED: IC50

MOLECULE	QUANTITY_MEASURED	RECORDED_MEASUREMENT
CNCc1ccccc1Nc1nc(Nc2ccc3c(c2)CN(C)C(=O)CC3)ncc1Cl	IC50	1000 to 10000 nM
COc1cc2c(cc1Nc1ncc(Cl)c(Nc3ccccc3S(=O)(=O)N(C)C)n1)CCN(CC(C)O)CC2 (stereo not shown)	IC50	< 100 nM
COc1cc2c(cc1Nc1ncc(Cl)c(Nc3ccc(N4CCOCC4)cc3OC)n1)C(C)(C)CCC(=O)N2	IC50	100 to 1000 nM
C#CCNC(=O)c1cccc(F)c1Nc1nc(Nc2ccc3c(c2)NCCCC3(C)C)ncc1Cl	IC50	100 to 1000 nM

---

- MEASURED_TARGET: baculovirus-expressed ALK (Homo sapiens)
- Construct: host or cells: baculovirus expression system
- PROTOCOL_TEXT: ALK Kinase Assay (ELISA-type, time-resolved fluorescence)
- Format: biochemical
- CONDITIONS: ALK kinase inhibition, 1 μM ATP; read-out: ALK Activity
pIC50: −log10 of the molar value.
Measured pIC50, listed per entry for reference.
QUANTITY_MEASURED: pIC50

MOLECULE	QUANTITY_MEASURED	RECORDED_MEASUREMENT
CNC(=O)c1ccccc1Nc1nc(Nc2ccc3c(c2)N(C)CCCO3)ncc1Cl	pIC50	> 7.00
CN1C(=O)CCC(C)(C)c2cc(Nc3ncc(Cl)c(N[C@H]4[C@@H](C(N)=O)[C@@H]5C=C[C@H]4C5)n3)ccc21	pIC50	> 7.00
COc1cc(N2CCOCC2)ccc1Nc1nc(Nc2cc(F)cc3c2OCCNC3=O)ncc1Cl	pIC50	> 7.00
CNC(=O)c1ccsc1Nc1nc(Nc2ccc3c(c2)CCN(CCOC)CC3)ncc1Cl	pIC50	6.00 to 7.00
CC(C)N1C(=O)CCC(C)(C)c2ccc(Nc3ncc(Cl)c(N[C@H]4[C@@H](C(N)=O)[C@@H]5C=C[C@H]4C5)n3)cc21	pIC50	> 7.00
COc1cc2c(cc1Nc1ncc(C(F)(F)F)c(Nc3ccc(N4CCOCC4)cc3OC)n1)N(C)C(=O)OCC2	pIC50	6.00 to 7.00
COc1cc2c(cc1Nc1ncc(Cl)c(Nc3ccccc3S(=O)(=O)N3CCCC3)n1)CCN(CC(C)O)CC2 (stereo not shown)	pIC50	> 7.00

---

- MEASURED_TARGET: c-Met (cytoplasmic domain) (Homo sapiens, UniProt P08581)
- Construct: 10 ng/mL c-Met (cytoplasmic domain, Invitrogen Corporation #PV3143); purchased Invitrogen Corporation PV3143
- PROTOCOL_TEXT: c-Met Kinase Assay (same methods as for ALK, with modifications)
- Assay type: biochemical
- CONDITIONS: c-Met kinase inhibition, 1 μM ATP; read-out: cMet Activity
pIC50: −log10 of the molar value.
Measured pIC50, listed per entry for reference.
QUANTITY_MEASURED: pIC50

COMPOUND	QUANTITY_MEASURED	RECORDED_MEASUREMENT
CNC(=O)c1cccc(F)c1Nc1nc(Nc2ccc3c(c2)-c2nccn2CCC3)ncc1Cl	pIC50	> 7.00
CNC(=O)c1scc(C)c1Nc1nc(Nc2ccc3c(c2)-c2nccn2CCC3)ncc1Cl	pIC50	6.00 to 7.00
NC(=O)C1C2C=CC(C2)C1Nc1nc(Nc2ccc3c(c2)CNC(=O)CC3)ncc1Cl (stereo not drawn)	pIC50	6.00 to 7.00
CNC(=O)c1ccccc1N(C)c1nc(Nc2ccc3c(c2)CN(C)C(=O)CC3)ncc1F	pIC50	> 7.00
CNC(=O)c1ccccc1Nc1nc(Nc2cc3c(cc2OC)CCOC(=O)N3C)ncc1Br	pIC50	5.00 to 6.00
CNC(=O)c1cccc(Cl)c1Nc1nc(Nc2ccc3c(c2)CNC(=O)CC3)ncc1Cl	pIC50	> 7.00
CCN1C(=O)CCC(C)(C)c2ccc(Nc3ncc(Cl)c(Nc4c(F)cccc4OCC#N)n3)cc21	pIC50	> 7.00
COc1cc(N2CCOCC2)ccc1Nc1nc(Nc2ccc3c(c2)C(C)(C)CCC(=O)N3C)ncc1Cl	pIC50	5.00 to 6.00
COc1cc2c(cc1Nc1ncc(Cl)c(N[C@H]3[C@@H](C(N)=O)[C@@H]4C=C[C@H]3C4)n1)CCN(CCO)CC2	pIC50	< 5.00
CCN1CC(=O)Nc2cc(Nc3ncc(Cl)c(N[C@H]4[C@@H](C(N)=O)[C@@H]5C=C[C@H]4C5)n3)c(OC)cc2C1	pIC50	< 5.00
CNC(=O)c1cccc(F)c1Nc1nc(Nc2ccc3c(c2)OCCCN3C(=O)OC2CCCN(C)C2)ncc1Cl (stereo not drawn)	pIC50	> 7.00
CC1(C)CCCNc2cc(Nc3ncc(Cl)c(N[C@H]4[C@@H](C(N)=O)[C@@H]5C=C[C@H]4C5)n3)ccc21	pIC50	6.00 to 7.00
C#CCNC(=O)c1cccc(F)c1Nc1nc(Nc2ccc3c(c2)N(C(=O)CN2C(=O)c4ccccc4C2=O)CCCC3(C)C)ncc1Cl	pIC50	> 7.00
CC(C)CN1C(=O)CCC(C)(C)c2ccc(Nc3ncc(Cl)c(N[C@H]4[C@@H](C(N)=O)[C@@H]5C=C[C@H]4C5)n3)cc21	pIC50	5.00 to 6.00
CCN1CC(O)(CO)COc2ccc(Nc3ncc(Cl)c(Nc4c(F)cccc4C(=O)NC)n3)cc21 (stereo not drawn)	pIC50	6.00 to 7.00
